Attribution: ChEMBL document CHEMBL4513216

cytotoxicity at 10 µM values for the compounds below.
assay.details: Toxicity liver stage against HepG2, at 10uM
Assay type: cell-based
Set-up: test concentration 10 uM, cell line HepG2-A16-CD81EGFP
particulars: human, HepG2-A16-CD81EGFP cells; read-out: INHIBITION

# compound, cytotoxicity at 10 µM, %
measured = [
    ("CN(C)C1CC2(CCN(C(=O)c3csnn3)CC2)c2ccccc21 (configuration not stated)", -138),
    ("O=C(NCC(O)c1cccs1)c1sccc1OC(F)F (configuration not stated)", -2.45),
    ("NC(=O)CCn1ccc(NC(=O)C2(c3ccc(F)cc3)CCC2)n1", -1.03),
    ("COc1ccc2c(c1)CN(c1nc(C)cc(C)n1)CC2", -0.734),
    ("CC(C)Sc1ncccc1C(=O)NCc1ccoc1", -0.945),
    ("Cc1c(COc2ccccc2)cccc1NC(=O)N1CC[C@H](O)C1", 13.7),
    ("CC(C)n1ccnc1CN1CCCC1c1cccc(-n2ccnc2)n1 (configuration not stated)", -25.1),
    ("CN1CCN(Cc2cccnc2)C2(CCN(Cc3ccoc3)C2)C1=O (configuration not stated)", -2.4),
    ("O=C(c1[nH]nc(C2CC2)c1Cl)N1CCN(C2CC2)C(=O)C1", -4.81),
    ("O=C1NCCN1CCNc1cc(-c2ccccc2)nc2ccnn12", -10.7),
    ("OCCN1CCC2(CC1)CC(NCc1ccccn1)c1ccccc1O2 (configuration not stated)", 0.98),
    ("Cc1nc(CN2CCC(CNC(=O)C3CCOC3)CC2)oc1C (configuration not stated)", 0.0966),
]

###

assay.details: Toxicity liver stage against HepG2, at 10uM
Type: cell-based
Parameters: test concentration 10 uM, cell line HepG2-A16-CD81EGFP
particulars: human, HepG2-A16-CD81EGFP cells; read-out: INHIBITION

# compound, units.symbol, cytotoxicity at 10 µM
data = [
    ("CCC(O)Cn1cc(C2=CCN(Cc3ccc(OC)cc3)CC2)cn1 (stereo unspecified)", "%", -3.94),
    ("Cc1cnc(C)c(Oc2ccc(Cl)c(CN3CCCC3)c2Cl)n1", "%", 2.61),
    ("O=C(CCn1c(C(F)(F)F)cc2cccnc21)NC1CCCC1", "%", -14.3),
    ("Cc1cc(N2CCCC(O)(CN(C)C)C2)c2cc3c(cc2n1)OCO3 (stereo unspecified)", "%", 0.935),
    ("COc1ncccc1CNC(=O)N1CCC(CN2CCOCC2)CC1", "%", -39.2),
    ("CN(C)CCNc1ccc(-c2nc(COc3ccccc3)no2)cn1", "%", 10.2),
]

###

assay.details: Toxicity liver stage against HepG2, at 10uM
Format: cell-based
Parameters: test concentration 10 uM, cell line HepG2-A16-CD81EGFP
particulars: human, HepG2-A16-CD81EGFP cells; read-out: INHIBITION

# molecule, cytotoxicity at 10 µM [%]
records = [
    ("CN(Cc1cnn(C)c1)C(=O)NCc1cc(Br)cs1", -10.1),
    ("CC(=O)NCC(=O)N1CCOC(c2cccc(N)n2)C1 (configuration not stated)", -4.68),
    ("c1cnn(Cc2nnc(C3CCN(C4CCOCC4)CC3)n2C2CC2)c1", -15.2),
    ("COC(=O)C1CCN(C(=O)c2nnc3ccc(Cl)cc3n2)CC1", 12.3),
    ("CCC1=NN2C(=N)C(=Cc3cccn3-c3ccc(Cl)cc3)C(=O)N=C2S1", 7.92),
    ("Cc1cc(C(=O)N2CCNC(=O)CC2)c(C)n1CC(F)(F)F", 1.88),
    ("CCc1nnc2n1CCN(C(=O)c1cc3ccc(C)cc3[nH]1)C2", -4.87),
    ("CCSc1ncc(Cl)c(C(=O)NC(CCSC)C(=O)O)n1 (configuration not stated)", -8.91),
    ("Cc1ccc(CNC2CCc3[nH]c(=O)ccc3C2)cc1C (configuration not stated)", 0.354),
    ("c1cncc(C[C@H]2[C@H](N3CCOCC3)CCN2Cc2nccs2)c1", 8.82),
    ("O=C(O)[C@]12CN(CC3CCC3)C[C@H]1CN(c1cnccn1)C2", 8.16),
    ("COCCNC(=O)C1(c2ccccc2C)CCOCC1", -9.04),
]

###

cytotoxicity at 10 µM values for the molecules below.
assay.details: Toxicity liver stage against HepG2, at 10uM
Type: cell-based
Set-up: test concentration 10 uM, cell line HepG2-A16-CD81EGFP
particulars: human, HepG2-A16-CD81EGFP cells; read-out: INHIBITION

# molecule, units.symbol, cytotoxicity at 10 µM
measured = [
    ("O=C(O)[C@]12CCCN(CC3CCOC3)C[C@H]1CN(c1ncccn1)C2 (stereo partly specified)", "%", -104),
    ("COCCS(=O)(=O)N1CCN(c2cccc(O)c2)CC1", "%", 5.33),
    ("Cc1ccccc1C(C)NC(=O)CN1CCN(Cc2ccc(Br)s2)CC1 (stereo unspecified)", "%", 22.9),
    ("CO[C@H]1CO[C@@]2(CCCN(C(=O)C3=CCCCC3)C2)C1", "%", -9.95),
    ("COc1cc(C)cc(C(C(=O)O)N2CCN(C3CCCC3)CC2)c1OC (stereo unspecified)", "%", -4.27),
    ("CN(C)CCN1C[C@@H]2CN(S(=O)(=O)c3ccccc3)C[C@@H]2C1=O", "%", -112),
    ("Cc1ccn2c(F)c(C(=O)N3CCC4(CCCN(C)C4=O)C3)nc2c1 (stereo unspecified)", "%", 2.51),
    ("CN1CCCC(CNS(=O)(=O)N2CCc3ccccc3C2)C1 (stereo unspecified)", "%", -4.32),
    ("CCCn1cnnc1CNC1CCSC1 (stereo unspecified)", "%", -1.1),
    ("CCn1nc(CC(C)C)cc1C(=O)N1CCOCC(O)C1 (stereo unspecified)", "%", -14.3),
    ("CN1CC(c2cc(O)nc(NCc3cccc(F)c3)n2)CC1=O (stereo unspecified)", "%", 1.96),
]

###

assay.details: Toxicity liver stage against HepG2, at 10uM
Type: cell-based
Parameters: test concentration 10 uM, cell line HepG2-A16-CD81EGFP
particulars: human, HepG2-A16-CD81EGFP cells; read-out: INHIBITION
test.readout: cytotoxicity at 10 µM

# compound, test.readout, value
measured = [
    ("CNC(=O)COC(=O)c1cccc(-n2ccc(C(F)(F)F)n2)c1", "cytotoxicity at 10 µM", "-39.5%"),
    ("COC(=O)N1CCc2ccccc2C1C(=O)NCc1ccccn1 (stereo not drawn)", "cytotoxicity at 10 µM", "-3.01%"),
    ("COc1cc(C)nc(N2CCN(C(=O)CCc3cccs3)CC2)n1", "cytotoxicity at 10 µM", "5.77%"),
    ("NC(=O)NCCC(=O)N1CCC(c2cc(Cc3ccccc3)n[nH]2)CC1", "cytotoxicity at 10 µM", "1.5%"),
    ("O=S1(=O)CCC(n2nc(Cc3cccs3)nc2-c2cnccn2)C1 (stereo not drawn)", "cytotoxicity at 10 µM", "-6.33%"),
    ("CS(=O)(=O)N1CCC(C(=O)N2CCN(Cc3cccc(Cl)c3)CC2)CC1", "cytotoxicity at 10 µM", "8.99%"),
    ("CCc1nnc(CN2CCc3ccc(S(N)(=O)=O)cc32)o1", "cytotoxicity at 10 µM", "1.41%"),
    ("CC(Cn1cccn1)NCc1csc2c1CCCC2 (stereo not drawn)", "cytotoxicity at 10 µM", "-2.86%"),
    ("Cc1ccncc1C(=O)N1C[C@H]2CN(CC3CCC3)C[C@@]2(C(=O)O)C1", "cytotoxicity at 10 µM", "-5.73%"),
    ("Cc1cnccc1N1CCN(C(=O)C2CC3(CCNCC3)CN2)CC1 (stereo not drawn)", "cytotoxicity at 10 µM", "-13.7%"),
    ("Cn1ccnc1CC1CCCN(C(=O)Cc2ccccc2)C1 (stereo not drawn)", "cytotoxicity at 10 µM", "-4.14%"),
    ("Cn1cc(N2CC3(COCCN(Cc4nccs4)C3)OCC2=O)cn1 (stereo not drawn)", "cytotoxicity at 10 µM", "-79.9%"),
    ("O=C(c1cc(-c2ccn(CC3CC3)n2)n2ccccc12)N1CCOCC1", "cytotoxicity at 10 µM", "9.76%"),
    ("Cc1ccccc1C(=O)NC[C@@H]1CCN(C(=O)c2cccn2C)C[C@H]1O", "cytotoxicity at 10 µM", "-45.3%"),
    ("CCOc1ncccc1CNC(=O)NCCNC(=O)c1ccco1", "cytotoxicity at 10 µM", "1.16%"),
    ("CN(C)C(=O)N1CCN(C(=O)CCc2ccccc2)[C@H]2CS(=O)(=O)C[C@H]21", "cytotoxicity at 10 µM", "-17.1%"),
    ("Cc1ccc(CN2CCC(n3cc(CN4CCC(O)CC4)nn3)CC2)s1", "cytotoxicity at 10 µM", "-3.53%"),
    ("Cc1cc(=O)n(CC(=O)NCCC(C)C)c(-c2cccc(Cl)c2)n1", "cytotoxicity at 10 µM", "-2.32%"),
    ("Cc1c(NCc2cccnc2)cccc1C(=O)N1CCC(N(C)C)C1 (stereo not drawn)", "cytotoxicity at 10 µM", "14.1%"),
    ("O=C(N[C@@H]1CN(Cc2ccoc2)[C@@H]2CCCO[C@@H]21)C1CC1", "cytotoxicity at 10 µM", "0.0515%"),
    ("CC(C)(C)c1nc(CN(Cc2cccs2)C2CCS(=O)(=O)C2)cs1 (stereo not drawn)", "cytotoxicity at 10 µM", "16%"),
    ("Cc1cnn(CCNCC(=O)N2CCN(c3ccccc3)CC2)c1", "cytotoxicity at 10 µM", "-6.74%"),
    ("CSCCCN1CCN(c2ccc(Cl)cn2)CC1", "cytotoxicity at 10 µM", "-5.52%"),
]
